B1: ACSBG2 (parent)
chain: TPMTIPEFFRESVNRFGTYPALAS

- Variants of: B1
- protocol-notes: protein stability index of a GFP-peptide fusion (GPS, HEK-293T) (PSI 1-6); higher = more stable;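 also: lentivirally expressed fusions sorted by FACS into six bins by GFP to DsRed ratio, PSI derived from sequencing read proportions per bin multiplied by bin number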
- experimental-setup: c terminus: a fixed tail appended
Label MET when protein stability index is at or above 2; anything below gets NOT MET.

The following variants have reported results that may help.
S24W | NOT MET
F9R | MET
L22M | NOT MET
E7R | MET

Confirm if protein stability index reported for the variant A23E is 2 or above.
MET

All values here come from the supplement of paper PMC10567573.
